method_notes: Primary qHTS for Vero E6 cytotoxicity: counterscreen for inhibitors of SARS-S pseudo-typed particle cell entry (AID 1479150)
study_conditions: cell viability; series mostly up to 57.1 µM
Records with an inconclusive call do not appear. The source made the active and inactive calls. Calls follow the shape of the full dose curve.
value_kind: activity change, negative = cytotoxicity

Consider the worked cases shown below.
CC[C@H]1OC(=O)[C@H](C)[C@@H](O[C@H]2C[C@@](C)(OC)[C@@H](O)[C@H](C)O2)[C@H](C)[C@@H](O[C@@H]2O[C@H](C)C[C@H](N(C)C)[C@H]2O)[C@](C)(O)C[C@@H](C)CN(C)[C@H](C)[C@@H](O)[C@]1(C)O	inactive
NC(=O)[C@@H]1CC[C@@H]2CN1C(=O)N2OS(=O)(=O)O	inactive
C=C/C=C/CC1=C(C)[C@H](OC(=O)[C@H]2[C@H](/C=C(\C)C(=O)OC)C2(C)C)CC1=O	inactive
CCC(=O)O[C@]1(C(=O)COC(C)=O)CC[C@H]2[C@@H]3C[C@H](C)C4=CC(=O)C=C[C@]4(C)[C@H]3[C@@H](O)C[C@@]21C	inactive

Q: Using the record for OC[C@H]1NC[C@H](O)[C@@H](O)[C@@H]1O , report its activity change, negative = cytotoxicity.
Result: inactive

Q: Fill in: activity change, negative = cytotoxicity of CON=C1C[C@]2(C[C@@H]3C[C@@H](C/C=C(\C)C[C@@H](C)/C=C/C=C4\CO[C@@H]5[C@H](O)C(C)=C[C@@H](C(=O)O3)[C@]45O)O2)O[C@H](/C(C)=C/C(C)C)[C@H]1C is ___
Result: inactive
